target: mouse CMKLR1 (Mus musculus); construct: expressed in transfected cells; host or cells: L1.2 cells; assay: Inhibition of chemerin-triggered mouse CMKLR1/L1.2 cell migration; format: cell-based; details: 100% human serum; 1 nM chemerin
parameterMeasured: IC50 (µM)
Kindly provide the numeric value in µM only, without the unit symbol.

What the record says about C[N+](C)(C)CCC(=O)c1cccc2ccccc12.[I-] [aNETA] : IC50 is 1.2

====

target: UniProt Q99788; test: Inhibition of chemerin-triggered human CMKLR1/L1.2 cell migration; format: cell-based; parameters: expressed in transfected cells; host or cells: L1.2 cells; details: 0.5% BSA; 1 nM chemerin
parameterMeasured: IC50 (nM)
Kindly provide the numeric value in nM only, without the unit symbol.

// compound C[N+](C)(C)CCC(=O)c1cccc2ccccc12.[I-] , assay UniProt Q99788, IC50 value: 1200

====

Target: mouse CMKLR1 (Mus musculus, UniProt P97468)
Construct: expressed in transfected cells; host or cells: L1.2 cells
Sequence (P97468 1-371): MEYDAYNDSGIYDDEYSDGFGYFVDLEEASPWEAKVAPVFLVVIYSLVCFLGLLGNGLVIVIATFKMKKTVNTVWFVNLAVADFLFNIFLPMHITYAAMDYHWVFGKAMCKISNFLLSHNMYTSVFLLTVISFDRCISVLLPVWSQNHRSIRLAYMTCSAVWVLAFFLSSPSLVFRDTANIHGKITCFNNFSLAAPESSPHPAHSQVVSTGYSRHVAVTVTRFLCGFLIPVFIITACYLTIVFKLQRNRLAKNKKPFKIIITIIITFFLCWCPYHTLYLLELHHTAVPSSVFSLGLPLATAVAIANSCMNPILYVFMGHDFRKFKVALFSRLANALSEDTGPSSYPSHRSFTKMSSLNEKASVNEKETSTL
Test: Inhibition of chemerin-triggered mouse CMKLR1/L1.2 cell migration
Format: cell-based
Conditions: buffer (10% FBS); 1 nM chemerin
parameterMeasured: pIC50
Scale note: pIC50 = -log10(concentration in M).

What the record says about C[N+](C)(C)CCC(=O)c1cccc2ccccc12.[I-] : pIC50 is 5.96

====

Biological target: huCMKLR1 (Homo sapiens)
Sequence (Q99788 1-373): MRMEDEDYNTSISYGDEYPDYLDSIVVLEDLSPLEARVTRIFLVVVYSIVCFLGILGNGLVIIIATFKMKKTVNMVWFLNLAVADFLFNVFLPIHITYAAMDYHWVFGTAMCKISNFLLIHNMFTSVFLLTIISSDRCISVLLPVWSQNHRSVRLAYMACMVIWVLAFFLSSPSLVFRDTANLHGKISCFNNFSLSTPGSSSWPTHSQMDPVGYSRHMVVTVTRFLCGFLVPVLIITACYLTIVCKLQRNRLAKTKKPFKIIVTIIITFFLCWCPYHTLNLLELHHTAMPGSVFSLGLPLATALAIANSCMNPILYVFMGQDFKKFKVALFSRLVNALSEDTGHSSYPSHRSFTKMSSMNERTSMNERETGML
Test: Inhibition of chemerin-triggered huCMKLR1 association with beta-arrestin2 (PathHunter CHO-K1 enzyme fragment complementation)
Format: cell-based
Parameters: host or cells: CHO-K1
Conditions: buffer (10% FBS); huCMKLR1/βARR CHO cells; 7 nM chemerin; read-out: IC50, inhibition of chemerin-triggered huCMKLR1 association with βARR
parameterMeasured: IC50 (nM)
Kindly provide the numeric value in nM only, without the unit symbol.

// molecule C[N+](C)(C)CCC(=O)c1cccc2ccccc12.[I-] [aNETA] , assay huCMKLR1 (Homo sapiens), IC50 value: 350

====

target: huCMKLR1 (Homo sapiens, UniProt Q99788); assay: Inhibition of chemerin-triggered human CMKLR1/L1.2 cell migration; format: cell-based; parameters: expressed in transfected cells; host or cells: L1.2 cells; conditions: buffer (10% FBS); 1 nM chemerin
parameterMeasured: pIC50
Scale note: pIC50 = -log10(concentration in M).

What the record says about C[N+](C)(C)CCC(=O)c1cccc2ccccc12.[I-] [aNETA] : pIC50 is 5.92

meta.source: patent US9265738B2
